Reference for the values: the RNAGym collection of RNA variant scans (doi:10.7554/elife.90254)

B1: LINE1-full (parent)
chain: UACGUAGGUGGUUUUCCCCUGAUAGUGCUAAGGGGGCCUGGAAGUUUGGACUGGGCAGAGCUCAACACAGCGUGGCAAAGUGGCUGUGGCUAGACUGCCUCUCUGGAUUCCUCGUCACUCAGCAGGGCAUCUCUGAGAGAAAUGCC

variants of: B1; assay: self-cleavage, relative activity (ratio to wild type); higher = more cleavage; in vitro, sequencing; the parent is a self-cleaving ribozyme
endpointName: self-cleavage
Give only the figure.

Answered examples (5):
[
  {
    "mutantName": "C3U A50U",
    "self-cleavage": 0.58
  },
  {
    "mutantName": "A50C A64G",
    "self-cleavage": 0.63
  },
  {
    "mutantName": "A31U A140G",
    "self-cleavage": 0.81
  },
  {
    "mutantName": "G4A U87C",
    "self-cleavage": 0.1
  },
  {
    "mutantName": "U26C G72U",
    "self-cleavage": 1.02
  }
]

Exercise: What does the record list as self-cleavage for C76U A136G ?
Solution: 1.75

Exercise: // returns reported self-cleavage for input U45C U91A
Solution: 0.55
